# system under test: BACE (Homo sapiens (Human), UniProt P56817)
# Sequence (P56817 46-501, species assumed): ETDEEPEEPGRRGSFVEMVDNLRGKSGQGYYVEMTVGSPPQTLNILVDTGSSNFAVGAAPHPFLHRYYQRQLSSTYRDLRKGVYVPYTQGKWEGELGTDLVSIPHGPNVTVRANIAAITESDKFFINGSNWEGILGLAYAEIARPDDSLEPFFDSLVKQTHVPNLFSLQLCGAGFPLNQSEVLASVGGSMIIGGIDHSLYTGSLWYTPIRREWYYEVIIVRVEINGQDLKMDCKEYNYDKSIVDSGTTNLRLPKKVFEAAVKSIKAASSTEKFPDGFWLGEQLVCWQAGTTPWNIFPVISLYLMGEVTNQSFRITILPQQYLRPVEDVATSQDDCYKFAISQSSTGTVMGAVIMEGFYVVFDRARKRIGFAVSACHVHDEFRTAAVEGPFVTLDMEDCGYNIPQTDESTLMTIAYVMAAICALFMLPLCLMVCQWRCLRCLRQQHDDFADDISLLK
# assay info: In vitro BACE cell-based assay (Aβ40 in conditioned medium, sandwich ELISA)
# if measured IC50 < 0.01 µM: rule met  # else: rule not met

Lab note: IC50 threshold 0.01 µM. Does this compound come in strictly under it? C#CCOc1ccc(C(=O)Nc2ccc(F)c([C@@]3(C(F)F)N=C(N)O[C@@H]4C[C@@H]43)c2)nc1 [Example 232] rule not met

Lab note: IC50 threshold 0.01 µM. Does this compound come in strictly under it? COc1cc(C#N)cnc1C(=O)Nc1cc(Cl)c(F)c([C@@]2(CF)N=C(N)O[C@@H]3C[C@@H]32)c1 [Example 86] rule met

Lab note: IC50 threshold 0.01 µM. Does this compound come in strictly under it? Cn1ccc(C(=O)Nc2ccc(F)c([C@@]3(C(F)F)N=C(N)O[C@@H]4C[C@@H]43)c2)cc1=O [Example 249] rule not met

Lab note: IC50 threshold 0.01 µM. Does this compound come in strictly under it? Cc1cc(OC(F)F)cnc1C(=O)Nc1ccc(Cl)c([C@@]2(CF)N=C(N)O[C@@H]3C[C@@H]32)c1 [Example 126] rule not met

Lab note: IC50 threshold 0.01 µM. Does this compound come in strictly under it? Cc1cc(C#N)cnc1C(=O)Nc1ccc(Cl)c([C@@]2(C(F)F)N=C(N)O[C@@H]3C[C@@H]32)c1 [Example 223] rule not met

Lab note: IC50 threshold 0.01 µM. Does this compound come in strictly under it? COc1cc(C#N)cnc1C(=O)Nc1ccc(Cl)c([C@@]2(CF)N=C(N)O[C@@H]3C[C@@H]32)c1 [Example 397] rule met

Lab note: IC50 threshold 0.01 µM. Does this compound come in strictly under it? CSc1c(F)cc(NC(=O)c2ccc(Cl)cn2)cc1[C@@]1(CF)N=C(N)O[C@@H]2C[C@@H]21 (racemic) [Example 141] rule not met

Lab note: IC50 threshold 0.01 µM. Does this compound come in strictly under it? NC1=N[C@@](c2cc(NC(=O)c3ccc(OCc4nccs4)cn3)ccc2F)(C(F)F)[C@H]2C[C@H]2O1 [Example 172] rule not met

---

Would you mind telling me the reported IC50 of each entry?
# system under test: UniProt P07339
# assay info: In vitro enzymatic Cathepsin D (Cat D) FRET assay
# Assay type: biochemical
# test conditions: read-out: CatD IC50

Kindly note the recorded IC50 for `N#Cc1cnc2c(Nc3ccc(Cl)c([C@@]4(CF)N=C(N)O[C@@H]5C[C@@H]54)c3)ncc(F)c2c1` , which is > 44.4 µM

Kindly note the recorded IC50 for NC1=N[C@](c2cc(NC(=O)c3nn(C(F)F)cc3Cl)ccc2Cl)(C(F)F)[C@@H]2C[C@@H]2O1 (racemic) [Example 220] , which is 691 µM

Kindly note the recorded IC50 for `NC1=N[C@@](c2cc(NC(=O)C3(c4ccc(Cl)cc4)CCC3)ccc2F)(C(F)F)[C@H]2C[C@H]2O1` , which is 324 µM

Kindly note the recorded IC50 for `C[C@]1(c2cc(NC(=O)c3ccc(Cl)cn3)cnc2F)N=C(N)O[C@@H]2C[C@@H]21` , which is 402 µM

Kindly note the recorded IC50 for `COc1ccc(C(=O)Nc2ccc(F)c([C@@]3(CF)N=C(N)O[C@@H]4C[C@@H]43)c2)nc1` , which is 759 µM

Kindly note the recorded IC50 for `COc1ccc(C(=O)Nc2ccc(Cl)c([C@@]3(CF)N=C(N)O[C@@H]4C[C@@H]43)c2)nc1` , which is 650 µM

Kindly note the recorded IC50 for `COc1cnc(C(=O)Nc2ccc(F)c([C@@]3(CF)N=C(N)O[C@@H]4C[C@@H]43)c2)c(Cl)c1` , which is 956 µM

Kindly note the recorded IC50 for Cc1nc(OCC(F)(F)F)cnc1C(=O)Nc1cc(F)c(Cl)c([C@]2(CF)N=C(N)O[C@H]3C[C@H]32)c1 [Example 316] , which is 1080 µM

Kindly note the recorded IC50 for CO[C@H](C)C(=O)Nc1ccc(F)c([C@@]2(C(F)F)N=C(N)O[C@@H]3C[C@@H]32)c1 (mixture of isomers) , which is 377 µM

---

# system under test: BACE (Homo sapiens (Human), UniProt P56817)
# assay info: In vitro BACE cell-based assay (Aβ40 in conditioned medium, sandwich ELISA)
value type: IC50

Kindly note the recorded IC50 for NC1=N[C@@](c2cc(NC(=O)c3nn(C(F)F)cc3Cl)cc(F)c2F)(C(F)F)[C@H]2C[C@H]2O1 (stereo in doubt) [Example 110] , which is > 17.4 µM

Kindly note the recorded IC50 for Cc1nc(OCC(F)(F)F)cnc1C(=O)Nc1cc(F)c(Cl)c([C@]2(CF)N=C(N)O[C@H]3C[C@H]32)c1 [Example 316] , which is > 15.6 µM

Kindly note the recorded IC50 for Cc1cc(C(F)(F)F)cnc1C(=O)Nc1cc(F)c(F)c([C@@]2(CF)N=C(N)O[C@@H]3C[C@@H]32)c1 (stereo in doubt) [Example 52] , which is > 15.6 µM

Kindly note the recorded IC50 for N#Cc1ccc(C(=O)Nc2ccc(F)c([C@@]3(C(F)F)N=C(N)O[C@@H]4C[C@@H]43)n2)nc1 [Example 331] , which is > 15.6 µM

Kindly note the recorded IC50 for NC1=N[C@@](c2cc(NC(=O)C3(c4ccc(Cl)cc4)CC3)ccc2F)(C(F)F)[C@H]2C[C@H]2O1 [Example 245] , which is > 15.6 µM

Kindly note the recorded IC50 for Cc1cc(OCC(F)(F)F)cnc1C(=O)Nc1ccc(F)c([C@@]2(C(F)F)N=C(N)O[C@@H]3C[C@@H]32)c1 [Example 189] , which is 0.386 µM

Kindly note the recorded IC50 for NC1=N[C@](c2cccc(NC(=O)c3ccc(Cl)cn3)c2)(C(F)F)[C@@H]2C[C@@H]2O1 [Example 264] , which is > 15.6 µM

Kindly note the recorded IC50 for NC1=N[C@@](CF)(c2cc(NC(=O)c3ccc(Cl)cn3)cnc2F)[C@@H]2C[C@@H]2O1 [Example 230] , which is 2.23 µM

Kindly note the recorded IC50 for CC#CCOc1ccc(C(=O)Nc2ccc(F)c([C@@]3(C(F)F)N=C(N)O[C@@H]4C[C@@H]43)c2)nc1 [Example 233] , which is 0.024 µM

---

# system under test: Cathepsin D (Cat D) (Homo sapiens (Human), UniProt P07339)
# Sequence (P07339 65-412, species assumed): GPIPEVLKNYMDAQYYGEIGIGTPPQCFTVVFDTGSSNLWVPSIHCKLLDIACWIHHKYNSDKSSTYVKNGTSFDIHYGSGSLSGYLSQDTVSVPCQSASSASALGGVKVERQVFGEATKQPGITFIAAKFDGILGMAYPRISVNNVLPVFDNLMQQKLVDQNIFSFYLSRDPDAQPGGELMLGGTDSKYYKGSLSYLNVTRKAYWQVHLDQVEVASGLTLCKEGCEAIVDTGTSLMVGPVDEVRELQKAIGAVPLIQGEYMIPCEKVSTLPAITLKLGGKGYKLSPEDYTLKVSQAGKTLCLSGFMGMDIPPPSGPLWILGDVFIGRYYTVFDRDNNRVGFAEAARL
# assay info: In vitro enzymatic Cathepsin D (Cat D) FRET assay
# Format: biochemical
# test conditions: read-out: CatD IC50
Would you mind telling me the reported IC50 of each entry?

Kindly note the recorded IC50 for `COc1cc(C#N)cnc1C(=O)Nc1ccc(Cl)c([C@@]2(CF)N=C(N)O[C@@H]3C[C@@H]32)c1` , which is > 400 µM

Kindly note the recorded IC50 for `NC1=N[C@@](CF)(c2cc(NC(=O)c3ccc(Cl)cn3)cnc2F)[C@@H]2C[C@@H]2O1` , which is > 400 µM

Kindly note the recorded IC50 for `COc1cnc2c(Nc3ccc(F)c([C@@]4(C)N=C(N)O[C@H]5C[C@H]54)c3)nccc2c1` , which is > 400 µM

Kindly note the recorded IC50 for NC1=N[C@](c2cc(NC(=O)c3ccc(Cl)cn3)ccc2F)(C(F)(F)F)[C@@H]2C[C@@H]2O1 (racemic) , which is > 400 µM

Kindly note the recorded IC50 for N#Cc1ccc(C(=O)Nc2cc(F)c(F)c([C@@]3(C(F)F)N=C(N)O[C@@H]4C[C@@H]43)c2)nc1 (stereo in doubt) [Example 109] , which is > 400 µM

Kindly note the recorded IC50 for `COc1cnc(C(=O)Nc2ccc(F)c([C@]3(C)N=C(N)O[C@H]4C[C@H]43)n2)cn1` , which is > 400 µM

Kindly note the recorded IC50 for `CC#Cc1cncc(-c2ccc(F)c([C@]3(C(F)F)N=C(N)O[C@H]4C[C@H]43)c2)c1` , which is 1020 µM

Kindly note the recorded IC50 for `NC1=N[C@@](c2cc(NC(=O)c3cnc(OCC4CC4)cn3)ccc2F)(C(F)F)[C@H]2C[C@H]2O1` , which is 747 µM

Kindly note the recorded IC50 for `Cc1cnc(C(=O)Nc2ccc(F)c([C@@]3(C(F)F)N=C(N)O[C@@H]4C[C@@H]43)c2)cn1` , which is 1160 µM

Kindly note the recorded IC50 for `N#Cc1cnc(C(=O)Nc2ccc(Cl)c([C@@]3(CF)N=C(N)O[C@@H]4C[C@@H]43)c2)c(Cl)c1` , which is 997 µM

Kindly note the recorded IC50 for `COc1cc(C#N)cnc1C(=O)Nc1cc(C)c(F)c([C@@]2(C(F)F)N=C(N)O[C@@H]3C[C@@H]32)c1` , which is 1090 µM

Kindly note the recorded IC50 for `COc1cnc2c(Nc3ccc(Cl)c([C@@]4(CF)N=C(N)O[C@@H]5C[C@@H]54)c3)nccc2c1` , which is 843 µM

Where do the numbers come from? From patent US9085576B2.
